Give measured pIC50 for each item. Keep answers brief.
- experimental-system: ABL1 (64-515) (Homo sapiens (Human), UniProt P00519)
- Sequence (P00519 64-515): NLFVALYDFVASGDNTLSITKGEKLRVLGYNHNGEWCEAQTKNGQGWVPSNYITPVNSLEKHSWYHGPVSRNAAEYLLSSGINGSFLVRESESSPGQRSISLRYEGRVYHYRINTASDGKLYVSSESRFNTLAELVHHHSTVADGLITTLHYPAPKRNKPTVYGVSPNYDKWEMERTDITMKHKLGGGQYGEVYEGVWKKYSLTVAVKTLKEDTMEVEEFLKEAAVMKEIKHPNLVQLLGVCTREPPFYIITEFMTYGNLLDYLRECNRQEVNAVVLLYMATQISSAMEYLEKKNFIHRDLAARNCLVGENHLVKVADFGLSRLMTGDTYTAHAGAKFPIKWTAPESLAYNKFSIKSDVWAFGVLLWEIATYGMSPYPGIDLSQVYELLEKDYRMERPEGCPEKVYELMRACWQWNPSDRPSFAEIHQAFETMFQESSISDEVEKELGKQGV
- method-summary: Caliper ABL1 (64-515) assay (microfluidic mobility shift)
- Format: biochemical
Answers are plain numbers, as −log10 of the molar value.

# count of solved cases: 3
1. Cc1ccc(-c2cc(C(=O)Nc3ccc(OC(F)(F)F)cc3)cnc2N2CC[C@@H](CO)C2)cn1 | 9.05
2. O=C(Nc1ccc(OC(F)(F)F)cc1)c1cnc(N2Cc3cn[nH]c3C2)c(-c2cncnc2)c1 | 8.96
3. CC(F)(F)Oc1ccc(NC(=O)c2cnc(N3CC[C@@H](O)C3)c(-c3cncnc3)c2)cc1 | 8.10

Dear colleague, could you send me pIC50 for each of the items below? Thanks.
1. O=C(Nc1ccc(OC(F)(F)C(F)(F)F)cc1)c1cnc(N2CC[C@@H](O)C2)c(-c2cncc(F)c2)c1
2. O=C(Nc1ccc(OC(F)(F)F)c(F)c1)c1cnc(N2CC[C@@H](O)C2)c(-c2cncc(F)c2)c1
3. COC(=O)c1cc(F)cc(-c2cc(C(=O)Nc3ccc(OC(F)(F)F)cc3)cnc2N2CC[C@@H](O)C2)c1
4. Nc1ncc(-c2cc(C(=O)Nc3ccc(OC(F)(F)F)cc3)cnc2N2CC[C@@H](O)C2)cn1
5. O=C(Nc1ccc(S(=O)(=O)C(F)(F)F)cc1)c1cnc(N2CC[C@@H](O)C2)c(-c2cncnc2)c1

1. 8.89
2. 8.92
3. 8.68
4. 8.85
5. 8.09
